# assayed.system: human LPA1 (Homo sapiens, UniProt Q92633)
# Construct: expressed in transfected cells; host or cells: Chinese hamster ovary (CHO) cells
# Sequence (Q92633 whole entry): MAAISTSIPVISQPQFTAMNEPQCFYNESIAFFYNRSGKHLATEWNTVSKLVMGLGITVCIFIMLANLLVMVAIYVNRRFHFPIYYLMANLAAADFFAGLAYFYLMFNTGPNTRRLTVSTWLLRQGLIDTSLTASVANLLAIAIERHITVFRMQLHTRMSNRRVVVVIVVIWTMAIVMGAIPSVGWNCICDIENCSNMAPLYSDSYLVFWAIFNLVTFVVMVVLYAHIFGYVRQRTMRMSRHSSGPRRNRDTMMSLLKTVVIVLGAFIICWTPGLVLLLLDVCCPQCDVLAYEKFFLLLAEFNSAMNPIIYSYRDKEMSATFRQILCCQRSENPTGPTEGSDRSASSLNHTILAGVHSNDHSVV
# measurement.description: LPA1 functional antagonist assay (LPA-induced calcium flux in CHO cells overexpressing human LPA1)
# Type: cell-based
# run.conditions: inhibition of calcium flux induced by 10 nM LPA, CHO cells overexpressing human LPA1; read-out: hLPA1 IC50
Rule: IC50 below 40 nM gives criterion met. Equal to or above 40 nM gives criterion not met.

Q) Check if IC50 falls below 40 nM for `CCCCc1nnnn1Cc1c(-c2ccc(O[C@H]3CCC[C@H](C(=O)O)C3)cn2)nnn1C` .
A) criterion not met

Q) Subsequent entry: Cc1nc(-c2nnn(C)c2CNc2noc(C3CC3(C)C)n2)ccc1O[C@H]1CCC[C@H](C(=O)O)C1 (stereo partly drawn) [Example 182]
A) criterion met

Q) Subsequent entry: Cc1nc(-c2nnn(C)c2CNc2noc(CCC(C)F)n2)ccc1O[C@H]1CCC[C@H](C(=O)O)C1 (stereo partly drawn) [Example 201]
A) criterion met

Q) Subsequent entry: `Cc1nc(-c2nnn(C)c2CNc2ncc(C(C)C)s2)ccc1O[C@H]1CCC[C@H](C(=O)O)C1`
A) criterion not met

Q) Subsequent entry: `CCCOc1nnn(Cc2c(-c3ccc(O[C@H]4CCC[C@H](C(=O)O)C4)c(C)n3)nnn2C)n1`
A) criterion not met

Q) Subsequent entry: `CCCCc1nc(NCc2c(-c3ccc(O[C@H]4CCC[C@H](C(=O)O)C4)c(C)n3)nnn2C)no1`
A) criterion met

Q) Subsequent entry: `Cc1nc(-c2nnn(C)c2Cn2nnnc2CCC2CC2)ccc1O[C@H]1CCC[C@H](C(=O)O)C1`
A) criterion not met

Q) Subsequent entry: `Cc1nc(-c2nnn(C)c2Cn2ncc(C(C)C)n2)ccc1O[C@H]1CCC[C@H](C(=O)O)C1`
A) criterion met

Q) Subsequent entry: `CCCc1noc(Cc2c(-c3ccc(O[C@H]4CCC[C@H](C(=O)O)C4)c(C)n3)nnn2C)n1`
A) criterion not met
